- study-system: GABAC receptor ρ1 subunit (Homo sapiens, UniProt P24046)
- Sequence (P24046 22-479): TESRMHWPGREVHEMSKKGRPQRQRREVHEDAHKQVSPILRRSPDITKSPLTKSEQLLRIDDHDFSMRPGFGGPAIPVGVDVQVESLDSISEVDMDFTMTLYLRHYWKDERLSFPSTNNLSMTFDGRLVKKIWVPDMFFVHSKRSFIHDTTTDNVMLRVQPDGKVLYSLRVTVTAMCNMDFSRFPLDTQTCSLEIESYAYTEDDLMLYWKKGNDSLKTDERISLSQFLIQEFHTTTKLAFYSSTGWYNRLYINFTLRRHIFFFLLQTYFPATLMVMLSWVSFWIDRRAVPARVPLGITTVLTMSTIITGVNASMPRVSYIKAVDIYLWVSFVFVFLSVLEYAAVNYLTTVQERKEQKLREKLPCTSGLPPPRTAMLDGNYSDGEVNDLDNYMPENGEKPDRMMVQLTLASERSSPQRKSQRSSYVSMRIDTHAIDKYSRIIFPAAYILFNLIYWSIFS
- method: two-electrode voltage clamp in Xenopus oocytes expressing human ρ[…]
test-readout: pIC50
Please report pIC50 as the negative decimal logarithm of the molar concentration, giving only the number.

Tell me the measured pIC50 of `CC(C)=CCC[C@](C)(O)[C@H]1CC[C@]2(C)[C@@H]1[C@H](O)C[C@@H]1[C@@]3(C)CC[C@H](O)C(C)(C)[C@@H]3[C@@H](O)C[C@]12C` , please. 4.34
